# Tested on: Escherichia coli IAI1
# METHOD_SUMMARY: growth (OD595) fold change vs plate DMSO controls (fold change (ratio)); higher = more growth
# CONDITION_DESCRIPTION: incubation time: 27 h, anaerobic, 37 °C
Counter-ions that a name gives are not always drawn.
OUTCOME_MEASURE: growth
Give only the figure.

According to the records, this compound CCOC(=O)/C=C(C)/C=C/C=C(C)/C=C/c1c(C)cc(OC)c(C)c1C [Etretinate] (20 µM) displays growth of 0.971

compound Cc1cc(=O)n(-c2ccccc2)n1C [Antipyrine] (20 µM) , growth observed: 0.959

According to the records, this compound CC(C)(Oc1ccc(C2CC2(Cl)Cl)cc1)C(=O)O (configuration not stated) [Ciprofibrate] (20 µM) displays growth of 0.88

Looking up NS(=O)(=O)c1cc(C(=O)O)cc(N2CCCC2)c1Oc1ccccc1 [Piretanide] (20 µM) , I see its growth listed as 0.987

# growth of COc1cc2nc(N3CCN(C(=O)C4CCCO4)CC3)nc(N)c2cc1OC (configuration not stated) [Terazosin hydrochloride] (20 µM) = 1.02

growth measured on Cc1ccc2c(c1)c1c3n2CCNC3CCC1 (configuration not stated) [Pirlindole mesylate] (20 µM) = 1.06

Sample CNCc1cc(-c2ccccc2F)n(S(=O)(=O)c2cccnc2)c1 [Vonoprazan] (20 µM) ; growth observed: 0.967

The reported value for Cc1ccnc2c1NC(=O)c1cccnc1N2C1CC1 [Nevirapine] (20 µM) in terms of growth is 0.959

# growth of O=C(O)CSCC(=O)NC1CCSC1=O (configuration not stated) [Erdosteine] (20 µM) = 1.07

Just so you know, measured growth for CC=CC1=C(C(=O)O)N2C(=O)[C@@H](NC(=O)[C@H](N)c3ccc(O)cc3)[C@H]2SC1 [Cefprozil] (20 µM) came out at 1.01

// growth value for CCCCNc1cc(C(=O)O)cc(S(N)(=O)=O)c1Oc1ccccc1 [Bumetanide] (20 µM) : 1.01

Short answer for N[C@@H](C(=O)N[C@@H]1C(=O)N2C(C(=O)O)=C(Cl)CC[C@H]12)c1ccccc1 [Loracarbef] (20 µM) : growth was 1.15

GET /value?item= Cc1ccc(C(C)NC(=O)[C@@H](NC(=O)OC(C)C)C(C)C)cc1 (some centres not stated) (20 µM) &field=growth returns 1.02

Value of measured growth for the entry OC[C@H]1O[C@H](O[C@H]2O[C@H](CO)[C@@H](O)[C@H](O)[C@H]2O)[C@H](O)[C@@H](O)[C@@H]1O [Trehalose dihydrate] (20 µM) : 1.04

Note to self: growth recorded for O=c1[nH]c(=O)n([C@H]2C[C@H](O)[C@@H](CO)O2)cc1F [Floxuridine] (20 µM) was 0.882

CCN(CC)Cc1cc(Nc2ccnc3cc(Cl)ccc23)ccc1O [Amodiaquine dihydrochloride dihydrate] (20 µM) has a reported growth of 0.964

Form: compound = O=C(N[C@H](CO)[C@H](O)c1ccc([N+](=O)[O-])cc1)C(Cl)Cl [Chloramphenicol] (20 µM) ; growth = 0.0503
